Data credit: the supplement of paper PMC10307832

# System: NCI-H596
# Measurement Description: relative viability (nuclei count vs DMSO), 5 days (fraction); higher = more cells survive
# Test Settings: first compound 0.003162 µM
class 1 if relative viability is below 1. class 0 if not; exact matches included in class 0.

- Compound: "Cc1cn(-c2cc(NC(=O)c3ccc(C)c(Nc4nccc(-c5cccnc5)n4)c3)cc(C(F)(F)F)c2)cn1 [Nilotinib] + Nc1nc2[nH]cc(CCc3ccc(C(=O)N[C@@H](CCC(=O)O)C(=O)O)cc3)c2c(=O)[nH]1 [Pemetrexed] (partner 0.2 µM)"
  Study Target: "NCI-H596"
  Classification: "class 1"
- Compound: "Cc1cn(-c2cc(NC(=O)c3ccc(C)c(Nc4nccc(-c5cccnc5)n4)c3)cc(C(F)(F)F)c2)cn1 [Nilotinib] + CS(=O)(=O)CCNCc1ccc(-c2ccc3ncnc(Nc4ccc(OCc5cccc(F)c5)c(Cl)c4)c3c2)o1 [Lapatinib] (partner 2 µM)"
  Study Target: "NCI-H596"
  Classification: "class 0"
- Compound: "Cc1cn(-c2cc(NC(=O)c3ccc(C)c(Nc4nccc(-c5cccnc5)n4)c3)cc(C(F)(F)F)c2)cn1 [Nilotinib] + N=C(N)NC(=N)NCCc1ccccc1 [Phenformin] (partner 250 µM)"
  Study Target: "NCI-H596"
  Classification: "class 1"

Problem: Please determine if Cc1cn(-c2cc(NC(=O)c3ccc(C)c(Nc4nccc(-c5cccnc5)n4)c3)cc(C(F)(F)F)c2)cn1 [Nilotinib] + CC(=O)Nc1cccc(-n2c(=O)n(C3CC3)c(=O)c3c(Nc4ccc(I)cc4F)n(C)c(=O)c(C)c32)c1 [Trametinib] (partner 0.02 µM) is below 1 in terms of relative viability.
Solution: class 1
